- studySystem: Androgen Receptor (AR) (Homo sapiens, UniProt P10275, T878A)
- Construct: cell based immuno-fluorescence assay using the LNCaP prostate epithelial cell line; endogenous in cells; host or cells: LNCaP clone FGC (ATCC CRL-1740)
- Sequence (P10275 1-920 T878A): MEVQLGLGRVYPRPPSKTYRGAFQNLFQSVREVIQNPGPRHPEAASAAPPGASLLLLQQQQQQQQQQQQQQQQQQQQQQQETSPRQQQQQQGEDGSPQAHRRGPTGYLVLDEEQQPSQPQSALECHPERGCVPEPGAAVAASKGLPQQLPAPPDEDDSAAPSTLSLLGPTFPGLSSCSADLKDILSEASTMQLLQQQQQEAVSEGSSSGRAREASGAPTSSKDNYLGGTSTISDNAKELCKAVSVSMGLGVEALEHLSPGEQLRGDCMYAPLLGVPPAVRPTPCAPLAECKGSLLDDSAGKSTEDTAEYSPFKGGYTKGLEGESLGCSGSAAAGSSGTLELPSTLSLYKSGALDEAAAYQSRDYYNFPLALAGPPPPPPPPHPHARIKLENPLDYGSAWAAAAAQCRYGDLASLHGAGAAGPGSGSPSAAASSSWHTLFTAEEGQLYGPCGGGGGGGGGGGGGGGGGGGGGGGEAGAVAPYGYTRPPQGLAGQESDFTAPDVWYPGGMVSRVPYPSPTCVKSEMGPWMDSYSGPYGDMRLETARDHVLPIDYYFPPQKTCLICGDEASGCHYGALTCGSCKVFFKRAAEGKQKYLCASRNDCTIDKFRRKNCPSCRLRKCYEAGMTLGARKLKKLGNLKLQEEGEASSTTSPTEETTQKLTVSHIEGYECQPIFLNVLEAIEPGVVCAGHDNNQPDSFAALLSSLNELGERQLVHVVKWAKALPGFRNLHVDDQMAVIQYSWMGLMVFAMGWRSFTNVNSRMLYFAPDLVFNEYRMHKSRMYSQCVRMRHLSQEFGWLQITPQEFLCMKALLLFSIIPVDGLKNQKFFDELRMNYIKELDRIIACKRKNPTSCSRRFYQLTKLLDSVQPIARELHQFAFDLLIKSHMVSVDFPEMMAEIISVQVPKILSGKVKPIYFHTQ
- testSummary: LNCaP Androgen Receptor Down-regulation Cell Assay (immunofluorescence end point)
- Assay type: cell-based
- experimentalConditions: LNCaP prostate carcinoma cells, compound incubation 20-22 hours, 50% reduction of the AR signal; read-out: Androgen Receptor Down-regulation Assay (a) IC50/μM
- Procedure: The ability of compounds to reduce Androgen Receptor (AR) numbers was assessed in a cell based immuno-fluorescence assay using the LNCaP prostate epithelial cell line. a) LNCaP Androgen Receptor Down-regulation Cell Assay […] Immunostaining was performed at room temperature. […] Then 50 μl of PBST was added to each well and plates were covered with a black plate seal and stored at 4° C. before being read. Plates were read within six hours of completing the immunostaining. […]
valueType: DC50 (µM)
Answers are plain numbers, in µM.

Hey, quick one: what's DC50 for each of these?
1. Fc1cncc(C2=CCN(c3ccc4nnc(C(F)(F)F)n4n3)CC2)c1
2. COCCN(C)C(=O)c1ccc(C2CCN(c3ccc4nnc(C(F)(F)F)n4n3)CC2)cc1
3. CN(Cc1cccnc1)C1CCN(c2ccc3nnc(C(F)(F)F)n3n2)CC1
4. CN(Cc1ccc(F)cc1)C1CCN(c2ccc3nnc(C(F)(F)F)n3n2)CC1

Response:
7.4
0.87
6.3
5.7
